- system tested: T1, human MSLN-FL-his protein (human, UniProt Q13421 296-580)
- T1 construct: made in HEK293E cells, purified on nickel column; also called hMSLN-FL-his; human MSLN full-length protein; not shown: His tag
- T1 sequence (Q13421 other isoform, or with tags, fused parts or gaps): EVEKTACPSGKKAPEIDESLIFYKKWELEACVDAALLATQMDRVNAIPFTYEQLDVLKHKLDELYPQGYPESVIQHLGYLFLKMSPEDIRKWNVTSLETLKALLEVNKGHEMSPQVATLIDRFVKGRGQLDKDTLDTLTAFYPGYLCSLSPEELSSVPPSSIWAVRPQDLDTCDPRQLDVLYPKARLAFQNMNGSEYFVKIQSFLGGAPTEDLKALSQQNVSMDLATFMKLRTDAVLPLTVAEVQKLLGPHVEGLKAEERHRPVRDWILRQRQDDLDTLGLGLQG
- protocol: competitive ELISA; row F8-33.12; further: test concentration or dose not given here
attribute measured: competition rate (%)

>>> value("S009-F8-33.12 (antibody, human IgG1, kappa, V domains shown, human-murine chimeric antibody, human IgG1/kappa constant regions) VH: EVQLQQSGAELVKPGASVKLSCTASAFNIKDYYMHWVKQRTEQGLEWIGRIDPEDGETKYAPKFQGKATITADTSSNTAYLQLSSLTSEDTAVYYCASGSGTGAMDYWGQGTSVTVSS VL: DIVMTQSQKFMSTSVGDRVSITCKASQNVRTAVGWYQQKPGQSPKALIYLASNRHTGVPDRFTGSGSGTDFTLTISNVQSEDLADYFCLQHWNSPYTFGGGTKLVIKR")
62.8
>>> value("S009-F8-36.12 (antibody, human IgG1, kappa, V domains shown, human-murine chimeric antibody, human IgG1/kappa constant regions) VH: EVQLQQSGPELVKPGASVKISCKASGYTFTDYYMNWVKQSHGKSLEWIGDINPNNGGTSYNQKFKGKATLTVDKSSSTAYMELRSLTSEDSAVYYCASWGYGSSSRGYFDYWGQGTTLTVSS VL: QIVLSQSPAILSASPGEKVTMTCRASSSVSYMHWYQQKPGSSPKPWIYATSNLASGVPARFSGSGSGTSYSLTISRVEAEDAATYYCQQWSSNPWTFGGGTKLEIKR")
8.3
>>> value("S009-F8-8.22 (antibody, human IgG1, kappa, V domains shown, human-murine chimeric antibody, human IgG1/kappa constant regions) VH: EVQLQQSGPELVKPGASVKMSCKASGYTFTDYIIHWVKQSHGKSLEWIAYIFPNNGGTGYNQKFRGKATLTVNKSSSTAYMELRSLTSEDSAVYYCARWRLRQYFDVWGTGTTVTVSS VL: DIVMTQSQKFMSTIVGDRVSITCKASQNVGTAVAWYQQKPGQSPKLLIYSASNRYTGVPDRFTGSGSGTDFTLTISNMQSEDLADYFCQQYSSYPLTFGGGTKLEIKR")
53.5
